Target or system UniProtKB Q62986: recorded pIC50 listed per item.
Sequence (Q62986 whole entry): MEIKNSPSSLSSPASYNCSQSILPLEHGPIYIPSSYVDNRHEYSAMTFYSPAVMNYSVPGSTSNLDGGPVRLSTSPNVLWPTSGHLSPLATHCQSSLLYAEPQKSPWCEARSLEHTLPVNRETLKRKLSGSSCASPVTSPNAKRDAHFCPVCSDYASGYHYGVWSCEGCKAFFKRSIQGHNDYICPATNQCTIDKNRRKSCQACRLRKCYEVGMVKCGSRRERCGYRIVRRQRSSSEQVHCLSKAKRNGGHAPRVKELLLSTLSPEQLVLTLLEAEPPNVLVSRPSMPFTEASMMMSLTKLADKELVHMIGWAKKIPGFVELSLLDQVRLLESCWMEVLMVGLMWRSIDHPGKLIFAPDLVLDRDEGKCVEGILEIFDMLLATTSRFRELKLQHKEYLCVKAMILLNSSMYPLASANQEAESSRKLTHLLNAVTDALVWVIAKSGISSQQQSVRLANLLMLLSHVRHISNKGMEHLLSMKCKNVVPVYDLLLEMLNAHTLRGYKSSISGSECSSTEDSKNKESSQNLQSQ
Remember the convention: pIC50 equals -log10 of concentration in molar.

Would you please look over these solved cases?
chemical_smiles=N#Cc1cc(O)cc2nc(-c3ccc(O)cc3)oc12 value_measured=8.40
chemical_smiles=O=Cc1cc(O)cc2nc(-c3ccc(O)cc3)oc12 value_measured=7.54
chemical_smiles=Oc1ccc(-c2noc3cc(O)ccc23)cc1 value_measured=7.44
chemical_smiles=C=Cc1cc(O)cc2nc(-c3ccc(O)c(F)c3)oc12 value_measured=8.50
chemical_smiles=Oc1ccc(-c2nc3cc(O)ccc3o2)cc1 value_measured=8.66
chemical_smiles=Oc1ccc(-c2nc3cc(O)cc(Br)c3o2)cc1 value_measured=8.92
chemical_smiles=Oc1ccc(-c2nc3ccc(O)cc3o2)cc1 value_measured=7.70

// moving on: another record for pIC50
Ask: What measured pIC50 is associated with `Oc1cc(Br)c2oc(-c3ccc(O)c(F)c3)nc2c1` on UniProtKB Q62986?
Result: 8.70
